Field: inhibition at 750 g/ha. Provide a value for each of the compounds that follow.
- System: Monochoria vaginalis
- test.method.notes: Field transplant rice test, applied 0 DAT, MV
- Assay type: in vivo
- recorded.conditions: Pontederia vaginalis, 0 h, 0.75 Kg/Ha, 4 WAT, read-out: Percent Inhibition, MV

Provide only the value of recorded inhibition at 750 g/ha for `CCCCOCN(C(=O)CCl)c1c(CC)cccc1CC` 98%

Give the reported value of inhibition at 750 g/ha for this record: `CCCCOc1cccc(CC)c1N(C)C(=O)CCl` 99%

Write down inhibition at 750 g/ha measured for item `CCCOCCN(C(=O)CCl)c1c(CC)cccc1CC` 99%

Give inhibition at 750 g/ha for the following compound: `CCCCOCCN(C(=O)CCl)c1c(CC)cccc1CC` 98%

Please report the measured inhibition at 750 g/ha for `CCCCOCN(C(=O)CCl)c1c(C)cccc1C(C)(C)C` 100%

====

- Test system: Rice
- test.method.notes: Field transplant rice test, applied 9 DAT, rice injury
- Format: in vivo
- recorded.conditions: Oryza sativa, 216 h, 0.375 Kg/Ha, 3 WAT, read-out: Percent Inhibition, Rice
readout: inhibition at 375 g/ha (%)
Write down the numeric answer in % and omit the unit.

For `CCCCOCCN(C(=O)CCl)c1c(CC)cccc1CC` , write its inhibition at 375 g/ha. 12

Give reported inhibition at 375 g/ha value for `CCCCOCN(C(=O)CCl)c1c(CC)cccc1CC` 10

Provide inhibition at 375 g/ha value for the following molecule: `CCCOCCN(C(=O)CCl)c1c(CC)cccc1CC` 8

Identify inhibition at 375 g/ha associated with the molecule `CCCCOc1cccc(CC)c1N(C)C(=O)CCl` 13

Provide only the value of recorded inhibition at 375 g/ha for `CCCCOCN(C(=O)CCl)c1c(C)cccc1C(C)(C)C` 17

====

- Tested on: Cyperus serotinus
- test.method.notes: Field transplant rice test, applied 0 DAT, CS
- Format: in vivo
- recorded.conditions: 0 h, 1.5 Kg/Ha, 4 WAT, read-out: Percent Inhibition, CS
readout: inhibition at 1500 g/ha (%)
# value in %; strip the unit string

Determine from records and report inhibition at 1500 g/ha for `CCCCOCCN(C(=O)CCl)c1c(CC)cccc1CC` 83

Let me know recorded inhibition at 1500 g/ha for `CCCCOCN(C(=O)CCl)c1c(CC)cccc1CC` , thanks. 82

Please give measured inhibition at 1500 g/ha of the following entry: `CCCCOCN(C(=O)CCl)c1c(C)cccc1C(C)(C)C` 99

Please indicate inhibition at 1500 g/ha recorded for `CCCCOc1cccc(CC)c1N(C)C(=O)CCl` 83

# return recorded inhibition at 1500 g/ha for entry `CCCOCCN(C(=O)CCl)c1c(CC)cccc1CC` 93

====

Give measured inhibition at 1500 g/ha for each item. Keep answers brief.
- Tested on: Cyperus serotinus
- test.method.notes: Field transplant rice test, applied 0 DAT, CS
- Assay type: in vivo
- recorded.conditions: 0 h, 1.5 Kg/Ha, 2 WAT, read-out: Percent Inhibition, CS
The reply should be a number in %, with the unit left off.

Return inhibition at 1500 g/ha for the following compound: `CCCOCCN(C(=O)CCl)c1c(CC)cccc1CC` 92

Complete the entry with inhibition at 1500 g/ha for `CCCCOc1cccc(CC)c1N(C)C(=O)CCl` 92

Supply inhibition at 1500 g/ha value. Item: `CCCCOCN(C(=O)CCl)c1c(C)cccc1C(C)(C)C` 93

Query inhibition at 1500 g/ha for `CCCCOCCN(C(=O)CCl)c1c(CC)cccc1CC` 82

Tell us which inhibition at 1500 g/ha value is on record for `CCCCOCN(C(=O)CCl)c1c(CC)cccc1CC` 90

====

Would you mind telling me the reported inhibition at 750 g/ha of each entry?
- System: Sagittaria trifolia
- test.method.notes: Field transplant rice test, applied 0 DAT, ST
- Type: in vivo
- recorded.conditions: 0 h, 0.75 Kg/Ha, 6 WAT, read-out: Percent Inhibition, ST

Please report the measured inhibition at 750 g/ha for `CCCCOCCN(C(=O)CCl)c1c(CC)cccc1CC` 7%

Provide measured inhibition at 750 g/ha value, entry: `CCCCOCN(C(=O)CCl)c1c(C)cccc1C(C)(C)C` 8%

Give reported inhibition at 750 g/ha value for `CCCCOc1cccc(CC)c1N(C)C(=O)CCl` 8%

Give a short answer stating reported inhibition at 750 g/ha for `CCCCOCN(C(=O)CCl)c1c(CC)cccc1CC` . 15%

For the compound `CCCOCCN(C(=O)CCl)c1c(CC)cccc1CC` , give its reported inhibition at 750 g/ha. 7%

====

- Tested on: Sagittaria trifolia
- test.method.notes: Field transplant rice test, applied 9 DAT, ST
- Type: in vivo
- recorded.conditions: 216 h, 1.5 Kg/Ha, 3 WAT, read-out: Percent Inhibition, ST
readout: inhibition at 1500 g/ha (%)
Number in %, nothing else.

Please list inhibition at 1500 g/ha recorded for the compound CCCOCCN(C(=O)CCl)c1c(CC)cccc1CC [Compound D] 43

Fill in inhibition at 1500 g/ha for record CCCCOc1cccc(CC)c1N(C)C(=O)CCl [Example 1] 40

Supply measured inhibition at 1500 g/ha of CCCCOCN(C(=O)CCl)c1c(CC)cccc1CC [Compound A] in your reply. 35

Output inhibition at 1500 g/ha of CCCCOCCN(C(=O)CCl)c1c(CC)cccc1CC [Compound B] 40

Return the recorded inhibition at 1500 g/ha value; entry: CCCCOCN(C(=O)CCl)c1c(C)cccc1C(C)(C)C [Compound C] 48

====

For each record, write down the corresponding inhibition at 750 g/ha.
- System: Monochoria vaginalis
- test.method.notes: Field transplant rice test, applied 9 DAT, MV
- Type: in vivo
- recorded.conditions: Pontederia vaginalis, 216 h, 0.75 Kg/Ha, 7 WAT, read-out: Percent Inhibition, MV
Give the value; after it, write the unit.

Report measured inhibition at 750 g/ha; entry is CCCCOCCN(C(=O)CCl)c1c(CC)cccc1CC [Compound B] 88%

Annotate the compound CCCCOc1cccc(CC)c1N(C)C(=O)CCl [Example 1] with its measured inhibition at 750 g/ha. 100%

Specify measured inhibition at 750 g/ha for CCCCOCN(C(=O)CCl)c1c(C)cccc1C(C)(C)C [Compound C] . 100%

Name the recorded inhibition at 750 g/ha of the item CCCOCCN(C(=O)CCl)c1c(CC)cccc1CC [Compound D] in your answer. 100%

Write down inhibition at 750 g/ha measured for item CCCCOCN(C(=O)CCl)c1c(CC)cccc1CC [Compound A] 60%

====

- System: Echinochloa crus-galli
- test.method.notes: Field transplant rice test, applied 0 DAT, EC
- Assay type: in vivo
- recorded.conditions: 0 h, 1.5 Kg/Ha, 4 WAT, read-out: Percent Inhibition, EC
readout: inhibition at 1500 g/ha (%)
Entry rule: numbers only, all in %.

Fill in inhibition at 1500 g/ha for record CCCCOc1cccc(CC)c1N(C)C(=O)CCl [Example 1] 100

Quick one: give measured inhibition at 1500 g/ha for CCCCOCCN(C(=O)CCl)c1c(CC)cccc1CC [Compound B] 98

Name the recorded inhibition at 1500 g/ha of the item CCCOCCN(C(=O)CCl)c1c(CC)cccc1CC [Compound D] in your answer. 98

Input CCCCOCN(C(=O)CCl)c1c(CC)cccc1CC [Compound A] , output reported inhibition at 1500 g/ha. 100

Recall and state the measured inhibition at 1500 g/ha for CCCCOCN(C(=O)CCl)c1c(C)cccc1C(C)(C)C [Compound C] . 100

====

- Test system: Rice
- test.method.notes: Field transplant rice test, applied 0 DAT, rice injury
- Type: in vivo
- recorded.conditions: Oryza sativa, 0 h, 0.75 Kg/Ha, 4 WAT, read-out: Percent Inhibition, Rice
readout: inhibition at 750 g/ha (%)
Hi! Could you send only the number? It should be in %, unit omitted.

Return the recorded inhibition at 750 g/ha value; entry: `CCCCOCN(C(=O)CCl)c1c(CC)cccc1CC` 0

For the compound `CCCCOc1cccc(CC)c1N(C)C(=O)CCl` , give its reported inhibition at 750 g/ha. 0

For the compound `CCCOCCN(C(=O)CCl)c1c(CC)cccc1CC` , give its reported inhibition at 750 g/ha. 2

Return inhibition at 750 g/ha for the following compound: `CCCCOCN(C(=O)CCl)c1c(C)cccc1C(C)(C)C` 2

Give the reported value of inhibition at 750 g/ha for this record: `CCCCOCCN(C(=O)CCl)c1c(CC)cccc1CC` 2

====

- Test system: Cyperus serotinus
- test.method.notes: Field transplant rice test, applied 0 DAT, CS
- Assay type: in vivo
- recorded.conditions: 0 h, 0.75 Kg/Ha, 2 WAT, read-out: Percent Inhibition, CS
readout: inhibition at 750 g/ha (%)
Provide the reading as a plain figure in %.

Supply measured inhibition at 750 g/ha of `CCCCOCN(C(=O)CCl)c1c(CC)cccc1CC` in your reply. 95

Complete the entry with inhibition at 750 g/ha for `CCCCOCN(C(=O)CCl)c1c(C)cccc1C(C)(C)C` 70

Supply inhibition at 750 g/ha value. Item: `CCCCOc1cccc(CC)c1N(C)C(=O)CCl` 62

State its inhibition at 750 g/ha: `CCCOCCN(C(=O)CCl)c1c(CC)cccc1CC` 73

Respond only with inhibition at 750 g/ha recorded for `CCCCOCCN(C(=O)CCl)c1c(CC)cccc1CC` 70
